Listed here are compounds together with their documented growth.
- Test system: SF-539 CNS
- test_method_notes: NCI-60 one-dose screen, 48 h (100 = growth as untreated, 0 = no growth, -100 = all killed)
- condition_details: 10 µM unless noted
The panel holds about 83,000 compounds, 20% with a hit somewhere; the sample as a whole holds those more often.
Unit % implied. Number only.

1. CCOC(=O)C(=CCC(C)C)C(=O)OCC ... 95.7
2. Nc1nc(Nc2ccc(F)cc2)nn1C(=O)c1cc(Cl)ccc1Cl ... 72.8
3. COc1cc(OC)cc(-c2ccc(-c3ccc(C(=N)N)cn3)s2)c1 ... 83.3

Input line: Check the records and state growth for "O=C1C=C(Nc2ccccc2)c2ncccc2C1=O"
Output line: -87.3

Input line: Check the records and state growth for "CC(=NCc1ccccc1)c1ccc(O)cc1O"
Output line: 97.8
